- run.description: Intrinsic clearance in rat liver microsomes preincubated for 10 mins followed by NADPH regenerating system addition and measured up to 30 mins by LC/MS-MS analysis
- Assay type: ADME, Microsome
reported.property: predicted hepatic clearance (CLH) (mL/min/kg)

Look over these answered cases.
Cn1cc(C(=O)N2CC(Oc3cncc(N4C(=O)c5ccc(Cl)cc5C4(C)C)c3)C2)cn1	6.4
Cc1ccncc1C(=O)N1CC(Oc2cncc(N3C(=O)c4ccc(Cl)cc4C3(C)C)c2)C1	10.4
CC(=O)N1CC2(C1)CN(c1cncc(N3C(=O)c4ccc(Cl)cc4C3(C)C)c1)C2	3.71

a. CC1(C)c2cc(Cl)ccc2C(=O)N1c1cncc(N2CCN(S(C)(=O)=O)CC2)c1
b. CCS(=O)(=O)N1CC2(CN(c3cncc(N4C(=O)c5ccc(Cl)cc5C4(C)C)c3)C2)C1
Which is greater in predicted hepatic clearance (CLH), the first item a or the second item b ? Give the label of your selection. a

P. CCS(=O)(=O)N1CC(Oc2cncc(N3C(=O)c4ccc(Cl)cc4C3(C)C)c2)C1
Q. CC(=O)N1CCN(c2cncc(N3C(=O)c4ccc(Cl)cc4C3(C)C)c2)CC1
Between these two entries, P and Q , state which has the higher predicted hepatic clearance (CLH). Use the label to indicate which entry you chose. Q
(Q: 17.7 mL/min/kg, P: 5 mL/min/kg)

1. Cn1cc(C(=O)N2CC3(C2)CN(c2cncc(N4C(=O)c5ccc(Cl)cc5C4(C)C)c2)C3)cn1
2. CCS(=O)(=O)N1CCC(c2cncc(N3C(=O)c4ccc(Cl)cc4C3(C)C)c2)CC1
Which has the smaller recorded predicted hepatic clearance (CLH), 1 or 2 ? Could you answer with the label of the item you picked? 1
(1: 6.4 mL/min/kg, 2: 35.1 mL/min/kg)

====

- tested.system: UniProtKB P15538
- Sequence (P15538 whole entry): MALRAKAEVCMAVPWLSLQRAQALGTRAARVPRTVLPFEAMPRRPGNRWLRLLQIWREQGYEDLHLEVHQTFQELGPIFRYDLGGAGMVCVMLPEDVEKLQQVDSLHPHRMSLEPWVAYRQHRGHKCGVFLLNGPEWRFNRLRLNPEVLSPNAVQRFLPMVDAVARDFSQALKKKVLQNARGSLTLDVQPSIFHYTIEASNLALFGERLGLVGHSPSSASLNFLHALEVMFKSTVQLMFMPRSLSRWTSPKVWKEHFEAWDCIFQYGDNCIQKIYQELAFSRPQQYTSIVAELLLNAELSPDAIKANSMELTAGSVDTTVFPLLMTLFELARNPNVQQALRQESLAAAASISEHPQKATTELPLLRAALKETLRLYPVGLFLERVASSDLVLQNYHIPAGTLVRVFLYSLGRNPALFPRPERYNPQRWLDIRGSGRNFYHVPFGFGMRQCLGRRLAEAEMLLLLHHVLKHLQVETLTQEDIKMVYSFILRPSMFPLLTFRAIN
- run.description: Inhibition of human CYP11B1 expressed in human renal leiomyoblastoma cells harboring FDXR/FDX using 1-deoxycortisol as substrate by HTRF assay
pIC50: −log10 of the molar value.
reported.property: pIC50

a. CCS(=O)(=O)N[C@@H]1CCCc2c1cncc2N1Cc2cc(Cl)ccc2C1=O
b. O=C1c2ccc(Cl)cc2C(C2CC2)N1c1cccnc1 (stereo unspecified)
c. N#Cc1ccc2c(c1)CN(c1cccnc1)C2=O
Order these by pIC50, descending, and give the full ranking. Ranked list of labels, please, in the requested order. a, c, b
(a: 5.75, c: 4.81, b: 4.49)

====

- tested.system: UniProtKB P15538
- run.description: Inhibition of human CYP11B1 expressed in human renal leiomyoblastoma cells harboring FDXR/FDX using 1-deoxycortisol as substrate by HTRF assay
pIC50: −log10 of the molar value.
reported.property: pIC50

Illustrative cases are given below, each with its answer.
O=C1c2ccc(Cl)cc2CCN1c1cccnc1	5.30
CC(=O)N[C@@H]1CCCc2c1cncc2N1Cc2cc(Cl)ccc2C1=O	5.63
O=C1c2cc(F)c(Cl)cc2CCN1c1cccnc1	5.45
CCC(=O)N[C@@H]1CCCc2c1cncc2N1CCc2cc(Cl)ccc2C1=O	5.48

I. CC(=O)N[C@H]1CCCc2c1cncc2N1Cc2cc(Cl)ccc2C1=O
II. CS(=O)(=O)N[C@@H]1CCCc2c1cncc2N1Cc2cc(Cl)ccc2C1=O
# return whichever of I and II has the smaller pIC50 // respond with label for picked entry I

====

- tested.system: Cytochrome P450 11B2, mitochondrial (Homo sapiens, UniProt P19099)
- Sequence (P19099 whole entry): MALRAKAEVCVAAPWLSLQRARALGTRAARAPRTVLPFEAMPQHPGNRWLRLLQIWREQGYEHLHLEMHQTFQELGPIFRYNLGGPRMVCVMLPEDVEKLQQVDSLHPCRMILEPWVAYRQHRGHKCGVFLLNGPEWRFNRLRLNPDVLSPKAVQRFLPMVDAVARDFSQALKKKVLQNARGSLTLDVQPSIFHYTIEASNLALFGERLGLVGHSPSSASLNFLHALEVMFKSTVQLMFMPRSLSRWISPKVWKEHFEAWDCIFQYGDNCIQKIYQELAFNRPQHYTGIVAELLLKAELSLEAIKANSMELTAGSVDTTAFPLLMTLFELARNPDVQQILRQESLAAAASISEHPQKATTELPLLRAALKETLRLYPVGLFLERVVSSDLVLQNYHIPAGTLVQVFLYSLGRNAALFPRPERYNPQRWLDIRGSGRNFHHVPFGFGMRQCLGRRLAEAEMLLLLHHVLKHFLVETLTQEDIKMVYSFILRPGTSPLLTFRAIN
- run.description: Inhibition of human CYP11B2 expressed in human renal leiomyoblastoma cells harboring FDXR/FDX using 1-deoxycorticosterone as substrate by HTRF assay
- Type: cell-based
reported.property: IC50 (nM)

Cc1ccncc1C(=O)N1CC(Oc2cncc(N3C(=O)c4ccc(Cl)cc4C3(C)C)c2)C1	4
CC1(C)c2cc(Cl)ccc2C(=O)N1c1cncc(CNS(C)(=O)=O)c1	33
CC(=O)N[C@@H]1CCCc2c1cncc2N1C(=O)c2ccc(Cl)cc2[C@H]1C1CC1	100

a. O=C1c2ccccc2CN1c1cccnc1
b. CCC(=O)NCc1cncc(N2C(=O)c3ccc(Cl)cc3C2(C)C)c1
Lab log: flag the item ( a or b ) with the smaller IC50 figure. Give the label under which the chosen entry appears. b

====

- run.description: Intrinsic clearance in human liver microsomes preincubated for 10 mins followed by NADPH regenerating system addition and measured up to 30 mins by LC/MS-MS analysis
- Format: ADME, Microsome
- assay.setup: read-out: CLH
reported.property: predicted hepatic clearance

Sample answers from the record:
CC1(C)c2cc(Cl)ccc2C(=O)N1c1cccnc1	< 3.5 mL/min/kg
CC(=O)N[C@@H]1CCCc2c1cncc2N1C(=O)c2ccc(Cl)cc2[C@@H]1C	< 3.5 mL/min/kg
CCC(=O)N[C@@H]1CCCc2c1cncc2N1C(=O)c2ccc(Cl)cc2[C@H]1CC	< 3.5 mL/min/kg
CCC1c2cc(Cl)ccc2C(=O)N1c1cccnc1 (configuration not stated)	6.6 mL/min/kg
O=C1c2ccc(Cl)cc2C(C2CC2)N1c1cccnc1 (configuration not stated)	9.4 mL/min/kg
O=C1c2cc(F)c(Cl)cc2CCN1c1cccnc1	< 3.5 mL/min/kg
CC(=O)N[C@@H]1CCCc2c1cncc2N1C(=O)c2ccc(Cl)cc2[C@H]1C	< 3.5 mL/min/kg
CS(=O)(=O)N[C@@H]1CCCc2c1cncc2N1CCc2cc(Cl)ccc2C1=O	< 3.5 mL/min/kg

What predicted hepatic clearance value was documented for this compound, CC1c2cc(Cl)ccc2C(=O)N1c1cccnc1 (configuration not stated) ? 12.2 mL/min/kg

Repeat for the following compound: O=C1c2ccc(Cl)cc2C2(CC2)N1c1cccnc1 3.5 mL/min/kg

Then what about the compound CCC(=O)N[C@@H]1CCCc2c1cncc2N1C(=O)c2ccc(Cl)cc2[C@@H]1CC ? < 3.5 mL/min/kg

Query CCC(=O)N[C@@H]1CCCc2c1cncc2N1CCc2cc(Cl)ccc2C1=O next < 3.5 mL/min/kg

CCS(=O)(=O)N[C@@H]1CCCc2c1cncc2N1Cc2cc(Cl)ccc2C1=O ? < 3.5 mL/min/kg

Next entry: CC(=O)N[C@@H]1CCCc2c1cncc2N1Cc2cc(Cl)ccc2C1=O < 3.5 mL/min/kg

How about CCC(=O)N[C@@H]1CCCc2c1cncc2N1C(=O)c2ccc(Cl)cc2[C@H]1C ? < 3.5 mL/min/kg

How about this compound: O=C1c2ccc(Cl)cc2CN1c1cccnc1 12.8 mL/min/kg

And the next one, CC(=O)N[C@@H]1CCCc2c1cncc2N1CCc2cc(Cl)ccc2C1=O ? 4.3 mL/min/kg

Next record, please: CC[C@H]1c2cc(Cl)ccc2C(=O)N1c1cncc2c1CCC[C@H]2NC(C)=O < 3.5 mL/min/kg

// repeat for CS(=O)(=O)N[C@@H]1CCCc2c1cncc2N1Cc2cc(Cl)ccc2C1=O and report < 3.5 mL/min/kg

# repeat for CC[C@@H]1c2cc(Cl)ccc2C(=O)N1c1cncc2c1CCC[C@H]2NC(C)=O < 3.5 mL/min/kg

Another compound to check: CCC(=O)N[C@@H]1CCCc2c1cncc2N1Cc2cc(Cl)ccc2C1=O < 3.5 mL/min/kg

What about CCC(=O)N[C@@H]1CCCc2c1cncc2N1C(=O)c2ccc(Cl)cc2[C@@H]1C ? < 3.5 mL/min/kg

====

- run.description: Intrinsic clearance in mouse liver microsomes preincubated for 10 mins followed by NADPH regenerating system addition and measured up to 30 mins by LC/MS-MS analysis
- Format: ADME, Microsome
reported.property: predicted hepatic clearance (CLH) (mL/min/kg)

Answered examples (4):
CCC(=O)N[C@@H]1CCCc2c1cncc2N1C(=O)c2ccc(Cl)cc2[C@H]1C	45.6
CCC1c2cc(Cl)ccc2C(=O)N1c1cccnc1 (stereo not given)	65.9
CC(=O)N[C@@H]1CCCc2c1cncc2N1C(=O)c2ccc(Cl)cc2[C@H]1C	43.5
CCS(=O)(=O)N[C@@H]1CCCc2c1cncc2N1Cc2cc(Cl)ccc2C1=O	27

I. O=C1c2cc(F)c(Cl)cc2CCN1c1cccnc1
II. O=C1c2ccc(Cl)cc2CN1c1cccnc1
III. N#Cc1ccc2c(c1)CN(c1cccnc1)C2=O
Put the items in sequence by predicted hepatic clearance (CLH), from largest down. Enter labels, ranked according to the request. II, III, I
(II: 76.5 mL/min/kg, III: 45.6 mL/min/kg, I: 30.9 mL/min/kg)

====

- run.description: Protein binding in rat plasma assessed as unbound fraction at 1 uM by micro-equilibrium dialysis based LC-MS/MS analysis
- Format: ADME, cell-free
reported.property: fraction unbound at 1 µM

CCS(=O)(=O)N1CC(Oc2cncc(N3C(=O)c4ccc(Cl)cc4C3(C)C)c2)C1	0.052
Cn1cc(C(=O)N2CC3(C2)CN(c2cncc(N4C(=O)c5ccc(Cl)cc5C4(C)C)c2)C3)cn1	0.066

====

- run.description: Oral bioavailability in Wister-Han rat at 3 mg/kg administered as single dose by LC/MS-MS analysis
- Assay type: ADME, organism-based
- assay.setup: Wistar-Han, in vivo
reported.property: bioavailability (%)

# annotated cases, reported bioavailability shown
CC1(C)c2cc(Cl)ccc2C(=O)N1c1cncc(N2CCN(S(C)(=O)=O)CC2)c1	54
Cc1ccncc1C(=O)N1CC(Oc2cncc(N3C(=O)c4ccc(Cl)cc4C3(C)C)c2)C1	40
Cn1cc(C(=O)N2CC3(C2)CN(c2cncc(N4C(=O)c5ccc(Cl)cc5C4(C)C)c2)C3)cn1	69
CC1(C)c2cc(Cl)ccc2C(=O)N1c1cncc(OC2CN(C(=O)c3ncccc3Cl)C2)c1	58
Cn1cc(C(=O)N2CC(Oc3cncc(N4C(=O)c5ccc(Cl)cc5C4(C)C)c3)C2)cn1	60

A. CCS(=O)(=O)N1CC(Oc2cncc(N3C(=O)c4ccc(Cl)cc4C3(C)C)c2)C1
B. CCS(=O)(=O)N1CCC(c2cncc(N3C(=O)c4ccc(Cl)cc4C3(C)C)c2)CC1
Between A and B , whose measured bioavailability reads higher? Please respond with the label that marks your chosen entry. B
